System: NCI-H522
Experiment: NCI tumour cell line growth inhibition, 48 h
Activity calls are given as the source filed them. Cut-off read from the data, not from the text of the source: active = GI50 up to about 1.1 µM and inactive = higher. Non-standard residues stand in square brackets, D forms with d. Residues, ends and D or L forms follow the SMILES beside them. ξ: configuration not given here. *: point of attachment. dThr(3ξ) = CC(O)[C@@H](N)C(=O)O; dNMeL = CN[C@H](CC(C)C)C(=O)O; OBn = c1ccc(CO*)cc1; ξLac = CC(O)C(=O)O
quantity-kind: GI50

O=c1oc2ccc(Cl)cc2c2ccccc12 :: 48.5 µM (inactive)
O=C(/C=C/c1ccc([N+](=O)[O-])o1)N1CCN(Cc2ccccc2)CC1 :: 2.82 µM (inactive)
CC(=O)OC(C)[C@@H](NC(=O)[C@@H](CC(C)C)N(C)C(=O)[C@@H]1CCCN1C(=O)C(C)O)C(=O)OCc1ccccc1 (stereo partly specified) (H-[ξLac]P[dNMeL][dThr(3ξ)](Ac)-OBn) :: > 100 µM (inactive)
O=C(O)Cc1cccc2c(=O)c3ccccc3oc12 :: 48.5 µM (inactive)
CCC(=O)OC1CCn2c1nc1c2C(=O)C(C)=C(NC(C)=O)C1=N (stereo unspecified) :: 1.39 µM (inactive)
Cn1cc(NC(=O)Nc2cc(C(=O)Nc3cc(C(=O)Nc4cc(S(=O)(=O)O)c5cc(S(=O)(=O)O)cc(S(=O)(=O)O)c5c4)n(C)c3)n(C)c2)cc1C(=O)Nc1cc(C(=O)Nc2cc(S(=O)(=O)O)c3cc(S(=O)(=O)O)cc(S(=O)(=O)O)c3c2)n(C)c1 :: > 100 µM (inactive)
C=CCNC(=S)N/N=C1\C(=O)N(CN2CCOCC2)c2ccc([N+](=O)[O-])cc21 :: 41.4 µM (inactive)
CC(C)CCC1(CCN)C(=O)NC(=O)NC1=O :: > 100 µM (inactive)
CNC(=O)OCc1c(CO)nc(SC)n1C :: > 100 µM (inactive)
COc1ccc(/C(=C\c2cc(OC)c(OC)c(OC)c2)C(=O)O)cc1 :: 21 µM (inactive)
O=c1c2cc(Br)ccc2nc(-c2ccccc2)n1NCC1(O)OCC(O)C(O)C1O (stereo unspecified) :: > 100 µM (inactive)
CCN(CC)CCN(C)CC(C)(C)C(=O)/C=C/c1ccccc1 :: 9.77 µM (inactive)
C\C(=N/N=C1/C(=C\N(C)C)C(=O)NC(=O)N1C)c1ccc(Cl)cc1 :: 62.2 µM (inactive)
N=C(N)NS(=O)(=O)c1ccc(NCCc2c3ccccc3nc3ccccc23)cc1 :: > 100 µM (inactive)
NNC(=S)N/N=C/C(=C/Nc1ccccc1)[N+](=O)[O-] :: > 100 µM (inactive)
O=C1CCC(CCc2nc3ccccc3[nH]2)(c2ccccc2)C(=O)N1 (stereo unspecified) :: 47.4 µM (inactive)
COc1ccc(/C=C2\OC(=O)C(Cl)=C2c2ccc(OC)c(Cl)c2)cc1 :: 25.3 µM (inactive)
COc1ccc2[nH]c3c4c(cc(-c5ccccc5)c3c2c1)C(=O)N(c1ccccc1)C4=O :: 8.24 µM (inactive)
Cc1ccc(/N=N/C(=N/c2ccccc2)c2ccc(N(CCC#N)CCC#N)cc2)cc1 :: 17.4 µM (inactive)
CC(C)N(C(=O)c1cccc(C(=O)N(C(C)C)C(C)C)c1)C(C)C :: > 100 µM (inactive)
O=C(CCc1cc(-c2ccc(F)cc2)n[nH]1)N(Cc1ccccc1)Cc1ccccc1 :: > 100 µM (inactive)
CCO/C=N\C1=C(C#N)SC2=N/C(=C\c3ccc(OC)cc3)C(=O)N21 :: 79.8 µM (inactive)
O=[N+]([O-])c1ccc(-c2ccc([C@H]3CC(c4cc(F)c(Cl)cc4Cl)=NN3)o2)cc1 :: 16.6 µM (inactive)
CN(CC#N)C1CCCC[C@H]1O (stereo partly specified) :: > 100 µM (inactive)
Nc1ncc(Cc2nn3c(COc4ccc(Cl)cc4)nnc3s2)s1 :: > 100 µM (inactive)
Nc1nc2c(c(=O)[nH]1)NC(CO)CN2 (stereo unspecified) :: > 100 µM (inactive)
Brc1ccc2[nH]c3c(C4=NCCC4)nccc3c2c1 :: 9.12 µM (inactive)
O=C1/C(=C/c2cccc([N+](=O)[O-])c2)Cc2ccccc21 :: 59.3 µM (inactive)
O=CNC(Cc1c[nH]cn1)C(=O)O (stereo unspecified) :: > 100 µM (inactive)
COc1cccc(N2C(=O)c3c(c4[nH]c5ccccc5c4c4ccc(C(C)(C)C)cc34)C2=O)c1 :: > 100 µM (inactive)
COc1cccc(N2C(=O)CS(=O)(=O)C2c2cccc(Oc3ccccc3)c2)c1 (stereo unspecified) :: 6.53 µM (inactive)
CC(C)=CC1C(C(=O)O)C1(C)C (stereo unspecified) :: > 750 µM (inactive)
COC1=C(C(=O)OC(C)(C)C)C23CCCCC2(C(C(=O)OC(C)(C)C)=C(OC)C3C(=O)OC(C)(C)C)C1C(=O)OC(C)(C)C (stereo unspecified) :: 11.6 µM (inactive)
CCOC(=O)C(=O)C(C#N)c1ccc(Cl)cc1 (stereo unspecified) :: > 100 µM (inactive)
C/C(=N\N)C(CN(C)C)C(c1ccccc1)c1c(O)c2ccccc2oc1=O (stereo unspecified) :: > 94.4 µM (inactive)
Cc1cccc(Cl)c1NCC(O)CN1CCN(C)CC1 (stereo unspecified) :: > 100 µM (inactive)
CC(C)CCC[C@@H](C)C1CCC2[C@@H]3CCC4CC(CCC=C(c5cc(Cl)c(OC(=O)c6ccccc6)c(C(=O)O)c5)c5cc(Cl)c(OC(=O)c6ccccc6)c(C(=O)O)c5)CC[C@]4(C)C3CC[C@@]21C (stereo partly specified) :: > 100 µM (inactive)
COc1ccc(Nc2nc3c(N)cc(C(F)(F)F)cc3nc2-c2ccccc2)cc1OC :: 15.6 µM (inactive)
O=[N+]([O-])c1ccc(/C=N/n2c(CO)nc3ccccc32)o1 :: 2.28 µM (inactive)
CN(C)c1n/c(=N/Cc2ccccc2)ss1 :: 2.61 µM (inactive)
CCOP(=O)(OCC)/C(C#N)=C/c1ccnc2ccccc12 :: 21.2 µM (inactive)

Taken from ChEMBL document CHEMBL1201862.
